test system: Escherichia coli EC14; assay: Broth micro-dilution MIC; assay type: cell-based
outcome-measure: MIC

Consider the following illustrative entries.
CC(C)CC(C(=O)NC1C(=O)NC(CC(N)=O)C(=O)NC2C(=O)NC3C(=O)NC(C(=O)NC(C(=O)O)c4cc(O)cc(O)c4-c4cc3ccc4O)C(OC3CC(C)(N)C(O)C(C)O3)c3ccc(c(Cl)c3)Oc3cc2cc(c3OC2OC(CO)C(O)C(O)C2OC2CC(C)(N)C(O)C(C)O2)Oc2ccc(cc2Cl)C1O)N(C)C(=O)c1ccc(-c2ccccc2)cc1 (stereo not drawn) = >64 µg/mL
CNC(CC(C)C)C(=O)NC1C(=O)NC(CC(N)=O)C(=O)NC2C(=O)NC3C(=O)NC(C(=O)NC(C(=O)O)c4cc(O)cc(O)c4-c4cc3ccc4O)C(OC3CC(C)(NC(=O)CCCCCCCc4ccccc4)C(O)C(C)O3)c3ccc(c(Cl)c3)Oc3cc2cc(c3OC2OC(CO)C(O)C(O)C2OC2CC(C)(N)C(O)C(C)O2)Oc2ccc(cc2Cl)C1O (stereo not drawn) = >64 µg/mL

Could you now look at the following molecule, please?
Known value: Escherichia coli EC14 MIC of the molecule CNC(CC(C)C)C(=O)NC1C(=O)NC(CC(N)=O)C(=O)NC2C(=O)NC3C(=O)NC(C(=O)NC(C(=O)O)c4cc(O)cc(O)c4-c4cc3ccc4O)C(OC3CC(C)(NC(=O)c4ccc(-c5ccc(Cl)cc5)cc4)C(O)C(C)O3)c3ccc(c(Cl)c3)Oc3cc2cc(c3OC2OC(CO)C(O)C(O)C2OC2CC(C)(N)C(O)C(C)O2)Oc2ccc(cc2Cl)C1O (stereo not drawn) equals >64 µg/mL

* * *

test system: Enterococcus faecalis 2041; test: Broth micro-dilution MIC; assay type: cell-based; conditions: BHI medium
outcome-measure: MIC

CNC(CC(C)C)C(=O)NC1C(=O)NC(CC(N)=O)C(=O)NC2C(=O)NC3C(=O)NC(C(=O)NC(C(=O)O)c4cc(O)cc(O)c4-c4cc3ccc4O)C(OC3CC(C)(N)C(O)C(C)O3)c3ccc(c(Cl)c3)Oc3cc2cc(c3OC2OC(CO)C(O)C(O)C2OC2CC(C)(NC(=O)CCCCCCCc3ccccc3)C(O)C(C)O2)Oc2ccc(cc2Cl)C1O (stereo not drawn) = ≦.06 μg/ml
CNC(CC(C)C)C(=O)NC1C(=O)NC(CC(N)=O)C(=O)NC2C(=O)NC3C(=O)NC(C(=O)NC(C(=O)O)c4cc(O)cc(O)c4-c4cc3ccc4O)C(OC3CC(C)(NC(=O)c4ccc(-c5ccc(Cl)cc5)cc4)C(O)C(C)O3)c3ccc(c(Cl)c3)Oc3cc2cc(c3OC2OC(CO)C(O)C(O)C2OC2CC(C)(N)C(O)C(C)O2)Oc2ccc(cc2Cl)C1O (stereo not drawn) = ≦.06 μg/ml
CNC(CC(C)C)C(=O)NC1C(=O)NC(CC(N)=O)C(=O)NC2C(=O)NC3C(=O)NC(C(=O)NC(C(=O)O)c4cc(O)cc(O)c4-c4cc3ccc4O)C(OC3CC(C)(NC(=O)c4ccc(-c5ccccc5)cc4)C(O)C(C)O3)c3ccc(c(Cl)c3)Oc3cc2cc(c3OC2OC(CO)C(O)C(O)C2OC2CC(C)(N)C(O)C(C)O2)Oc2ccc(cc2Cl)C1O (stereo not drawn) = 1 µg/mL

* * *

test system: Staphylococcus aureus SA1199A; experiment: Broth micro-dilution MIC; format: cell-based
outcome-measure: MIC

Consider the following illustrative entries.
CNC(CC(C)C)C(=O)NC1C(=O)NC(CC(N)=O)C(=O)NC2C(=O)NC3C(=O)NC(C(=O)NC(C(=O)O)c4cc(O)cc(O)c4-c4cc3ccc4O)C(OC3CC(C)(NC(=O)CCCCCCCc4ccccc4)C(O)C(C)O3)c3ccc(c(Cl)c3)Oc3cc2cc(c3OC2OC(CO)C(O)C(O)C2OC2CC(C)(N)C(O)C(C)O2)Oc2ccc(cc2Cl)C1O (centres unmarked) = ≦.06 μg/ml
CNC(CC(C)C)C(=O)NC1C(=O)NC(CC(N)=O)C(=O)NC2C(=O)NC3C(=O)NC(C(=O)NC(C(=O)O)c4cc(O)cc(O)c4-c4cc3ccc4O)C(OC3CC(C)(N)C(O)C(C)O3)c3ccc(c(Cl)c3)Oc3cc2cc(c3OC2OC(CO)C(O)C(O)C2OC2CC(C)(NC(=O)CCCCCCCc3ccccc3)C(O)C(C)O2)Oc2ccc(cc2Cl)C1O (centres unmarked) = ≦.06 μg/ml
CC(C)CC(C(=O)NC1C(=O)NC(CC(N)=O)C(=O)NC2C(=O)NC3C(=O)NC(C(=O)NC(C(=O)O)c4cc(O)cc(O)c4-c4cc3ccc4O)C(OC3CC(C)(N)C(O)C(C)O3)c3ccc(c(Cl)c3)Oc3cc2cc(c3OC2OC(CO)C(O)C(O)C2OC2CC(C)(N)C(O)C(C)O2)Oc2ccc(cc2Cl)C1O)N(C)C(=O)CCCCCCCc1ccccc1 (centres unmarked) = ≦.06 μg/ml
CNC(CC(C)C)C(=O)NC1C(=O)NC(CC(N)=O)C(=O)NC2C(=O)NC3C(=O)NC(C(=O)NC(C(=O)O)c4cc(O)cc(O)c4-c4cc3ccc4O)C(OC3CC(C)(NC(=O)c4ccc(-c5ccc(Cl)cc5)cc4)C(O)C(C)O3)c3ccc(c(Cl)c3)Oc3cc2cc(c3OC2OC(CO)C(O)C(O)C2OC2CC(C)(N)C(O)C(C)O2)Oc2ccc(cc2Cl)C1O (centres unmarked) = ≦.06 μg/ml

Could you now look at the following molecule, please?
Value of MIC reported for the molecule CCCCCCCCOc1ccc(C(=O)NC2(C)CC(OC3c4ccc(c(Cl)c4)Oc4cc5cc(c4OC4OC(CO)C(O)C(O)C4OC4CC(C)(N)C(O)C(C)O4)Oc4ccc(cc4Cl)C(O)C(NC(=O)C(CC(C)C)NC)C(=O)NC(CC(N)=O)C(=O)NC5C(=O)NC4C(=O)NC3C(=O)NC(C(=O)O)c3cc(O)cc(O)c3-c3cc4ccc3O)OC(C)C2O)cc1 (centres unmarked) is ≦.06 μg/ml

* * *

test system: Staphylococcus epidermidis 270; experiment: Broth micro-dilution MIC; assay type: cell-based
Would you mind telling me the reported MIC of each entry?
One number for each entry, in µg/mL.

CC(C)CC(C(=O)NC1C(=O)NC(CC(N)=O)C(=O)NC2C(=O)NC3C(=O)NC(C(=O)NC(C(=O)O)c4cc(O)cc(O)c4-c4cc3ccc4O)C(OC3CC(C)(N)C(O)C(C)O3)c3ccc(c(Cl)c3)Oc3cc2cc(c3OC2OC(CO)C(O)C(O)C2OC2CC(C)(N)C(O)C(C)O2)Oc2ccc(cc2Cl)C1O)N(C)C(=O)c1ccc(-c2ccccc2)cc1 (stereo not shown) = 2
CCCCCCCCOc1ccc(C(=O)NC2(C)CC(OC3C(Oc4c5cc6cc4Oc4ccc(cc4Cl)C(OC4CC(C)(N)C(O)C(C)O4)C4NC(=O)C(NC(=O)C6NC(=O)C(CC(N)=O)NC(=O)C(NC(=O)C(CC(C)C)NC)C(O)c6ccc(c(Cl)c6)O5)c5ccc(O)c(c5)-c5c(O)cc(O)cc5C(C(=O)O)NC4=O)OC(CO)C(O)C3O)OC(C)C2O)cc1 (stereo not shown) = 8
CCCCCCCC(=O)NC1(C)CC(OC2C(Oc3c4cc5cc3Oc3ccc(cc3Cl)C(OC3CC(C)(N)C(O)C(C)O3)C3NC(=O)C(NC(=O)C5NC(=O)C(CC(N)=O)NC(=O)C(NC(=O)C(CC(C)C)NC)C(O)c5ccc(c(Cl)c5)O4)c4ccc(O)c(c4)-c4c(O)cc(O)cc4C(C(=O)O)NC3=O)OC(CO)C(O)C2O)OC(C)C1O (stereo not shown) [Example 8, 4′-N-octanoyl-A82846B] = 8

Could you now look at the following compound, please?
Known value: Staphylococcus epidermidis 270 MIC of the compound CNC(CC(C)C)C(=O)NC1C(=O)NC(CC(N)=O)C(=O)NC2C(=O)NC3C(=O)NC(C(=O)NC(C(=O)O)c4cc(O)cc(O)c4-c4cc3ccc4O)C(OC3CC(C)(NC(=O)c4ccc(-c5ccc(Cl)cc5)cc4)C(O)C(C)O3)c3ccc(c(Cl)c3)Oc3cc2cc(c3OC2OC(CO)C(O)C(O)C2OC2CC(C)(N)C(O)C(C)O2)Oc2ccc(cc2Cl)C1O (stereo not shown) equals 4
